Source listed as patent US20190135908A1.

Molecular target: T1, Mouse His-GDF15: HIS-tagged mouse GDF15 (mouse, UniProt Q9Z0J7 189-303)
T1 construct: not shown: His tag
T1 sequence (looked up): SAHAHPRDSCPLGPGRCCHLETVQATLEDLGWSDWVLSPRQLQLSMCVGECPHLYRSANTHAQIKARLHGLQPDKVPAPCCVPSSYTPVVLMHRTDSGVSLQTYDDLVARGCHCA
Test: Biacore SPR, IgG captured via anti-human Fc, GDF15 in flow
Method: Biacore assay is based on surface plasmon resonance (SPR) and were used to determine the binding affinity of antibodies to GDF15. Anti-human Fc capture antibody was immobilized at 0.5 μg/ml on CMS chip in all four flow cells to achieve 8000 to 12,000 resonance units (RU) on the surface. Anti-hGDF15 antibodies were captured at flow rate […], at 0.25 to 0.5 μg/ml on the chip to get about 30 RU in flow cells 2, 3 and 4. […]
Recorded Kd, one value per entry.
Report only the number, with the unit pM understood.

binder | Kd (pM)
ABGDF15-F (antibody, human IgG1, lambda, V domains shown, captured through anti-human Fc in the Biacore assay) VH: EVQLVQSGAEVKKPGESLKISCKGSGYSFTSYWIGWVRQMPGKGLEWMGVIDPSGSYTIYSPSFQGQVTISADKSISTAYLQWSSLKASDTAMYYCARYGRYGTYFDYWGQGTLVTVSS VL: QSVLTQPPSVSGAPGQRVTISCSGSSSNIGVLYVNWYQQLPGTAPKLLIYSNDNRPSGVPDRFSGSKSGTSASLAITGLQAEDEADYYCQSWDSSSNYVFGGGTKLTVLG | 96.4

// next entry
Return reported Kd; argument: ABGDF15-D (antibody, human IgG1, lambda, V domains shown, captured through anti-human Fc in the Biacore assay) VH: EVQLVQSGAEVKKPGESLKISCKGSGYSFTSYWIGWVRQMPGKGLEWMGVIDPDGSYTIYSPSFQGQVTISADKSISTAYLQWSSLKASDTAMYYCARYGRYGTYFDYWGQGTLVTVSS VL: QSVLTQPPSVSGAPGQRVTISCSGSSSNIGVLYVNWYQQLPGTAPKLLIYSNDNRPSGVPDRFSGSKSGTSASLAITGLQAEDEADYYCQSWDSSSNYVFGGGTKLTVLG
45.7
